- Study System: Human opiate κ receptors (Homo sapiens)
- Sequence (P41145 whole entry): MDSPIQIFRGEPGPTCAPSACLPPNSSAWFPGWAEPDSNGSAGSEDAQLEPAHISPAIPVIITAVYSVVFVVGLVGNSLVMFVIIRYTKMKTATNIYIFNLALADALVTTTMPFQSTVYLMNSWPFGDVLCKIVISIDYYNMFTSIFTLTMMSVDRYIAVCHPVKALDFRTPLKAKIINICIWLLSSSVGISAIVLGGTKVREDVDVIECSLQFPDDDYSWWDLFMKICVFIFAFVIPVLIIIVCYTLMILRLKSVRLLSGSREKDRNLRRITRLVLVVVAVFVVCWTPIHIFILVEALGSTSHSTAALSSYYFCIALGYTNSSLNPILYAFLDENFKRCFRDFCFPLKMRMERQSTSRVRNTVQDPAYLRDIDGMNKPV
- Protocol Notes: κ opioid receptor functional assay, [35S]GTPγS binding (assay C)
- Format: biochemical
- Applied Conditions: read-out: GTPγS EC50
Readout Name: EC50

{"Compound": "Cl.O=C(OCc1ccccc1)N1CCN(C(=O)Cc2ccc(Cl)c(Cl)c2)C2C(N3CCCC3)CCCC21 (stereo not drawn)", "Readout Name": "EC50", "Experimental Value": "< 10 nM"}
{"Compound": "Cl.O=C(Cc1ccc(Cl)c(Cl)c1)N1CCN(S(=O)(=O)NCCO)C2CCCC(N3CCC(O)C3)C21 (stereo not drawn)", "Readout Name": "EC50", "Experimental Value": "10 to 100 nM"}
{"Compound": "CC(C)OC(=O)C(=O)N1CCN(C(=O)Cc2ccc(Cl)c(Cl)c2)[C@@H]2[C@@H](N3CCCC3)CCC[C@@H]21.Cl", "Readout Name": "EC50", "Experimental Value": "< 10 nM"}
{"Compound": "COC(=O)N1CCN(C(=O)Cc2ccc(Cl)c(Cl)c2)C2C(N3CC(O)C3)CCCC21 (racemic)", "Readout Name": "EC50", "Experimental Value": "10 to 100 nM"}
{"Compound": "Cl.Cl.Cl.O=C(Cc1ccc(Cl)c(Cl)c1)N1CCN(c2cccnc2)C2CCCC(N3CCCC3)C21 (racemic)", "Readout Name": "EC50", "Experimental Value": "< 10 nM"}

Quick one: EC50 of CS(=O)(=O)N1CCN(C(=O)Cc2ccc(Cl)c(Cl)c2)C2C(N3CCC(O)C3)CCCC21.Cl (stereo not drawn) ?
< 10 nM

Entry `O=C(Cc1ccc(Cl)c(Cl)c1)N1CCN(S(=O)(=O)NC2CCCC2)[C@H]2CCC[C@H](N3CC[C@H](O)C3)[C@H]21` : reported EC50 = ?
< 10 nM

EC50 for CN(C)S(=O)(=O)N1CCN(C(=O)Cc2ccc(Cl)c(Cl)c2)C2C(N3CCC(O)C3)CCCC21.Cl (stereo not drawn) ?
< 10 nM

Value source: patent US20160122307A1
